Reported mean (LOPAC screen with protease) values follow for various molecules
- system: UniProt:P0DTD1
- assay.method.text: biochemical
- Format: biochemical
- test.settings: sheet LOPAC_screen_w_protease; primary screen at 5 µM; mean of two replicates
Simply state the number, no unit and no words.

Observe how each entry below is paired with its result.
1. C[N+](C)(C)CCC(=O)c1cccc2ccccc12.[I-] : 102.503
2. Cc1ccc(S(=O)(=O)N[C@@H](Cc2ccccc2)C(=O)CCl)cc1 : 61.4515
3. Cc1ccc(S(=O)(=O)N[C@@H](CCCCN)C(=O)CCl)cc1.Cl : 20.7427
4. Br.CN1CCc2cc(O)c(O)cc2C(c2ccccc2)C1 (stereo not drawn) [SKF 75670 hydrobromide] : 25.5455
5. CC(C)CC(N)CSSCC(N)CC(C)C.Cl.Cl [L-Leucinethiol, oxidized dihydrochloride] : 45.1144
6. CNCCNS(=O)(=O)c1cccc2cnccc12.Cl.Cl [H-8 dihydrochloride] : 10.4369
7. CCCN1CCc2cccc3c2[C@H]1Cc1ccc(O)c(O)c1-3.Cl [R(-)-Propylnorapomorphine hydrochloride] : 100.867
8. CCCn1c(=O)c2[nH]c(C3CCCC3)nc2n(CCCOC(=O)c2ccc(S(=O)(=O)F)cc2)c1=O : 6.832
9. Br.Oc1cc2c(c(Cl)c1O)CCNCC2c1ccccc1 (racemic) [(±)-6-Chloro-PB hydrobromide] : 66.2827
10. CCCc1c(OCCCOc2ccc(OCC(=O)O)cc2)ccc(C(C)=O)c1O : 13.6599

Identify the reported mean (LOPAC screen with protease) for the following entry. Nc1c[n+](N2CCOCC2)no1.[Cl-] [3-Morpholinosydnonimine hydrochloride]
21.789

Identify the reported mean (LOPAC screen with protease) for the following entry. "CCCn1c(=O)c2[nH]c(-c3ccc(S(=O)(=O)O)cc3)nc2n(CCC)c1=O"
7.8949

###

- system: SARS-CoV-2 3CLpro (Severe acute respiratory syndrome coronavirus 2)
- assay.method.text: biochemical
- Assay type: biochemical
- Parameters: unit not given here
- test.settings: sheet LOPAC_screen_w_protease; LOPAC1280 primary screen at 5 µM, with protease; replicate 2
Quick rule for you: Replicate_2 at 0.3 or higher means Condition met, lower means Condition not met.

1. [Cl-].[Li+] [Lithium Chloride] : Condition met
2. CC#CCOC(=O)c1c(C)nc2sc3c(c2c1N)CCC(O)C3 (stereo not shown) [SB 205384] : Condition not met
3. COc1ccc(CNC(=O)/C=C/c2ccc3[nH]cc(CCN(C)C)c3c2)cc1 [GR 4661] : Condition not met

Check the entry "Cl.Cl.Clc1cccc(N2CCNCC2)c1" : does Replicate_2 equal or exceed 0.3?
Condition met

Check the entry CCCN1CCO[C@@H]2c3cc(O)ccc3OC[C@H]21.Cl [S(+)-PD 128,907 hydrochloride] : does Replicate_2 equal or exceed 0.3?
Condition met

###

- system: SARS-CoV-2 3CLpro (Severe acute respiratory syndrome coronavirus 2)
- assay.method.text: biochemical
- Format: biochemical
- Set-up: unit not given here
- test.settings: sheet LOPAC_screen_w_protease; primary screen with protease, replicate 1
parameter.measured: Replicate_1
Simply state the number, no unit and no words.

Identify the reported Replicate_1 for the following entry. CN1CCC(c2c[nH]c3ccc(O)cc23)CC1.O=C(O)/C=C\C(=O)O [BRL 54443 maleate]
0.4828

Identify the reported Replicate_1 for the following entry. COC(=O)N1CCN(C(=O)Cc2ccc(Cl)c(Cl)c2)C(CN2CCCC2)C1.O=C(O)/C=C/C(=O)O (stereo not drawn) [GR-89696 fumarate]
2.9956

Identify the reported Replicate_1 for the following entry. CC1CN(S(=O)(=O)c2cccc3cnccc23)CCN1.Cl.Cl (stereo not drawn)
3.532

Identify the reported Replicate_1 for the following entry. "COc1ccc2c(c1)c(CC(=O)O)c(C)n2C(=O)c1ccccc1"
2.008

Identify the reported Replicate_1 for the following entry. C[C@H](Cc1ccc(OCC(=O)[O-])cc1)NC[C@H](O)c1cccc(Cl)c1.[Na+] [BRL 37344 sodium]
0.8642

###

Reported Replicate_1 values follow for various molecules
- system: SARS-CoV-2 3CLpro (Severe acute respiratory syndrome coronavirus 2, UniProt P0DTD1)
- assay.method.text: biochemical
- Format: biochemical
- Design: unit not given here
- test.settings: sheet LOPAC_screen_w_protease; primary screen with protease, compound at 5 µM; replicate 1
Simply state the number, no unit and no words.

Observe how each entry below is paired with its result.
1) CCN(CC)C(C)C(=O)N1c2ccccc2Sc2ccccc21.Cl (stereo not drawn) : 5.208
2) Cc1cccc(C#Cc2ccccc2)n1.Cl : 2.241
3) C[C@H](O)[C@H](O)[C@H]1CNc2nc(N)[nH]c(=O)c2N1.Cl : 3.694

Identify the reported Replicate_1 for the following entry. CN(C)CCC(c1ccc(Br)cc1)c1ccccn1.O=C(O)/C=C\C(=O)O (racemic) [(±)-Brompheniramine maleate]
2.5605

Identify the reported Replicate_1 for the following entry. Cl.Cn1ccc2cc(NC(=O)Nc3cccnc3)ccc21 [SB 200646 hydrochloride]
2.958

###

- system: SARS-CoV-2 3CLpro (Severe acute respiratory syndrome coronavirus 2, UniProt P0DTD1)
- assay.method.text: biochemical
- Format: biochemical
- test.settings: LOPAC1280 primary screen with protease, 5 µM compound, replicate 1
Mark 1 only when Replicate_1 (LOPAC_screen_w_protease) stays strictly below 2. Values equal to the cut-off are -1.

Regarding CC(C)C[C@H]1C(=O)N2CCC[C@H]2[C@]2(O)O[C@](NC(=O)[C@@H]3C=C4c5cccc6[nH]c(Br)c(c56)C[C@H]4N(C)C3)(C(C)C)C(=O)N12.CS(=O)(=O)O [(+)-Bromocriptine methanesulfonate] , kindly confirm whether its Replicate_1 (LOPAC_screen_w_protease) is beneath 2.
-1

###

- system: SARS-CoV-2 3CLpro (Severe acute respiratory syndrome coronavirus 2, UniProt P0DTD1)
- assay.method.text: biochemical
- Assay type: biochemical
- test.settings: 4 h, LOPAC1280 primary screen with protease, 5 µM compound, replicate 2; read-out: Replicate_2 (LOPAC_screen_w_protease)
Counter-ions that a name gives are not always drawn.
parameter.measured: inhibition at 5 µM (%)
Kindly answer with a numeric value in %, unit omitted.

1. Nc1nnc(-c2cccc(Cl)c2Cl)c(N)n1 [Lamotrigine] : 1.78
2. O=C1NC(=O)C(c2ccccc2)(c2ccccc2)N1 [Phenytoin sodium] : 2.6
3. CN1C[C@H](C(=O)N[C@]2(C)O[C@@]3(O)[C@@H]4CCCN4C(=O)[C@H](Cc4ccccc4)N3C2=O)C[C@@H]2c3cccc4[nH]cc(c34)C[C@H]21 [Dihydroergotamine methanesulfonate] : 1.52
4. COc1ccc(CCCOC(Cn2ccnc2)c2ccc(OC)cc2)cc1 (centres unmarked) [SKF 96365] : 2.09
5. COc1cc2nc(N3CCN(C(=O)C4COc5ccccc5O4)CC3)nc(N)c2cc1OC (centres unmarked) [Doxazosin mesylate] : -0.00681

Okay, next one:
Identify the reported inhibition at 5 µM for the following entry. NC(=O)c1cc(N2CC2)c([N+](=O)[O-])cc1[N+](=O)[O-] [CB 1954]
3.06

###

- system: SARS-CoV-2 3CLpro (Severe acute respiratory syndrome coronavirus 2)
- assay.method.text: biochemical
- Assay type: biochemical
- Design: unit not given here
- test.settings: LOPAC1280 primary screen with protease, 5 µM compound, mean of the two replicates
Reported mean (LOPAC_screen_w_protease) values follow for various compounds

Observe how each entry below is paired with its result.
1. CCCCOC(=O)NS(=O)(=O)c1sc(CC(C)C)cc1-c1ccc(Cn2c(CC)nc3c(C)cc(C)nc32)cc1 : 1.8394
2. CN1C[C@H](C(=O)N[C@]2(C)O[C@@]3(O)[C@@H]4CCCN4C(=O)[C@H](Cc4ccccc4)N3C2=O)C[C@@H]2c3cccc4[nH]cc(c34)C[C@H]21 [Dihydroergotamine methanesulfonate] : 1.805
3. CC(C)(C)NCC(O)c1ccc(O)c(CO)c1.CC(C)(C)NCC(O)c1ccc(O)c(CO)c1.O=S(=O)(O)O (stereo not drawn) [Albuterol hemisulfate] : 2.078

Identify the reported mean (LOPAC_screen_w_protease) for the following entry. "N[C@@H](Cc1ccc(F)cc1)C(=O)O"
2.051

Identify the reported mean (LOPAC_screen_w_protease) for the following entry. N.N.N.Nc1ncnc2c1ncn2C1OC(COP(=O)(O)OP(=O)(O)OP(=O)(O)OP(=O)(O)OC[C@H]2O[C@@H](n3cnc4c(N)ncnc43)C(O)C2O)[C@@H](O)C1O (stereo in doubt)
2.093

Identify the reported mean (LOPAC_screen_w_protease) for the following entry. CC(C)C[C@H]1C(=O)N2CCC[C@H]2[C@]2(O)O[C@](NC(=O)[C@@H]3C=C4c5cccc6[nH]c(Br)c(c56)C[C@H]4N(C)C3)(C(C)C)C(=O)N12.CS(=O)(=O)O [(+)-Bromocriptine methanesulfonate]
1.984

###

- system: SARS-CoV-2 3CLpro (Severe acute respiratory syndrome coronavirus 2)
- assay.method.text: biochemical
- Assay type: biochemical
- Design: unit not given here
- test.settings: sheet LOPAC_screen_w_protease; LOPAC1280 primary screen at 5 µM, with protease; replicate 1
Quick rule for you: Replicate_1 at 1 or higher means Y, lower means N.

Sample answers from the record:
1) O=S(=O)(c1cccc2cnccc12)N1CCNCC1 [HA-100] : Y
2) O=C(O)/C=C\C(=O)O.O=[N+]([O-])c1ccc2nc(N3CCNCC3)ccc2c1 [Quipazine, 6-nitro-, maleate] : Y
3) CCCCCCCCCC(=O)NC(CN1CCOCC1)[C@H](O)c1ccccc1.Cl (mixture of isomers) : Y

Check the entry Cl.O=C(O)Cc1c[nH]cn1 [Imidazole-4-acetic acid hydrochloride] : does Replicate_1 equal or exceed 1?
Y

Check the entry CCN(CC)C(=O)N[C@H]1C[C@@H]2c3cccc4[nH]cc(c34)C[C@H]2N(C)C1 [R(+)-Terguride] : does Replicate_1 equal or exceed 1?
N

Check the entry S=C([S-])OC1CC2CC1C1CCCC21.[K+] [D-609 potassium] : does Replicate_1 equal or exceed 1?
N

Check the entry CCCn1c(=O)c2[nH]c(-c3ccc(OCC(=O)NCCN)cc3)nc2n(CCC)c1=O [Xanthine amine congener] : does Replicate_1 equal or exceed 1?
N

Check the entry CC#CCOC(=O)c1c(C)nc2sc3c(c2c1N)CCC(O)C3 (stereo not drawn) [SB 205384] : does Replicate_1 equal or exceed 1?
Y
